Recorded values, source ChEMBL document CHEMBL4177653.

- System: MCF7
- experiment_description: Antiproliferative activity against human MCF7 cells after 72 hrs by MTT assay
- Format: functional, cell-based
- condition_label: MCF7, 72 h
Mark Y only when IC50 stays strictly below 1 µg/mL. Values equal to the cut-off are N.

Query block: Is the reported IC50 for `COc1ccc(C(=O)O/N=C(/Cn2cc([N+](=O)[O-])nc2C)c2ccc(Br)cc2)cc1` strictly below 1 µg/mL?
Result block: N

Query block: Queued: `Cc1ccccc1C(=O)O/N=C(/Cn1cc([N+](=O)[O-])nc1C)c1ccc(Br)cc1`
Result block: N

Query block: Lookup `Cc1nc([N+](=O)[O-])cn1C/C(=N/OC(=O)c1ccccc1Br)c1ccc(Br)cc1`
Result block: N

Query block: Now try `Cc1nc([N+](=O)[O-])cn1C/C(=N/OC(=O)c1ccc(Cl)nc1)c1ccc(Br)cc1` .
Result block: Y

Query block: Likewise for `Cc1nc([N+](=O)[O-])cn1C/C(=N/OC(=O)c1ccc(Cl)cc1)c1ccc(Br)cc1` ?
Result block: N

Query block: # iterate: `Cc1nc([N+](=O)[O-])cn1C/C(=N/OC(=O)c1cccc(Br)c1)c1ccc(Br)cc1`
Result block: N

Query block: Please answer likewise for `Cc1cccc(C(=O)O/N=C(/Cn2cc([N+](=O)[O-])nc2C)c2ccc(Br)cc2)c1`
Result block: N

Query block: One more compound: `Cc1ccc(C(=O)O/N=C(/Cn2cc([N+](=O)[O-])nc2C)c2ccc(Br)cc2)cn1`
Result block: Y

Query block: Thanks! And `Cc1nc([N+](=O)[O-])cn1C/C(=N/OC(=O)c1cccnc1)c1ccc(Br)cc1` ?
Result block: Y

Query block: Another: `Cc1nc([N+](=O)[O-])cn1C/C(=N/OC(=O)c1ccc([N+](=O)[O-])cc1)c1ccc(Br)cc1`
Result block: Y

Query block: Please answer likewise for `Cc1nc([N+](=O)[O-])cn1C/C(=N/OC(=O)c1ccccc1)c1ccc(Br)cc1`
Result block: N

Query block: Next entry: `Cc1nc([N+](=O)[O-])cn1C/C(=N/OC(=O)c1ccc(F)cc1)c1ccc(Br)cc1`
Result block: N

Query block: Also `Cc1nc([N+](=O)[O-])cn1C/C(=N/OC(=O)c1ccccc1Cl)c1ccc(Br)cc1` , if possible.
Result block: N

Query block: How about `Cc1nc([N+](=O)[O-])cn1C/C(=N/OC(=O)c1cccc(Cl)c1)c1ccc(Br)cc1` ?
Result block: Y

Query block: Next compound up: `Cc1nc([N+](=O)[O-])cn1C/C(=N/OC(=O)c1ccccc1[N+](=O)[O-])c1ccc(Br)cc1`
Result block: N

----------
- experiment_description: Cytotoxicity against human 293T cells after 72 hrs by MTT assay
- Assay type: cell-based
- condition_label: HEK-293T cells
property_measured: CC50 at 72 h (µg/mL)
Give just the numeric value; µg/mL need not be written.

Query block: // CC50 at 72 h lookup, key: `Cc1nc([N+](=O)[O-])cn1C/C(=N/OC(=O)c1ccc(Br)cc1)c1ccc(Br)cc1`
Result block: 330

Query block: Do the same for `COc1ccc(C(=O)O/N=C(/Cn2cc([N+](=O)[O-])nc2C)c2ccc(Br)cc2)cc1` please
Result block: 1600

Query block: Same for `Cc1nc([N+](=O)[O-])cn1C/C(=N/OC(=O)c1ccccc1[N+](=O)[O-])c1ccc(Br)cc1`
Result block: 230

Query block: // query: `Cc1nc([N+](=O)[O-])cn1C/C(=N/OC(=O)c1ccc(Cl)cc1)c1ccc(Br)cc1`
Result block: 230

Query block: Same read-out for `Cc1nc([N+](=O)[O-])cn1C/C(=N/OC(=O)c1ccc(Cl)nc1)c1ccc(Br)cc1` ?
Result block: 250

Query block: Continue with `Cc1nc([N+](=O)[O-])cn1C/C(=N/OC(=O)c1ccccc1)c1ccc(Br)cc1`
Result block: 32000

Query block: Next: `Cc1nc([N+](=O)[O-])cn1C/C(=N/OC(=O)c1cccc(Cl)c1)c1ccc(Br)cc1`
Result block: 700

Query block: Try `Cc1cccc(C(=O)O/N=C(/Cn2cc([N+](=O)[O-])nc2C)c2ccc(Br)cc2)c1` next.
Result block: 1300

Query block: Let us now turn to `Cc1nc([N+](=O)[O-])cn1C/C(=N/OC(=O)c1ccccc1Br)c1ccc(Br)cc1`
Result block: 150

Query block: Record: `Cc1ccccc1C(=O)O/N=C(/Cn1cc([N+](=O)[O-])nc1C)c1ccc(Br)cc1`
Result block: 3800

Query block: Now the molecule `Cc1nc([N+](=O)[O-])cn1C/C(=N/OC(=O)c1ccncc1)c1ccc(Br)cc1`
Result block: 80

Query block: Try `Cc1nc([N+](=O)[O-])cn1C/C(=N/OC(=O)c1ccc(F)cc1)c1ccc(Br)cc1` next.
Result block: 23000

Query block: Request: `Cc1nc([N+](=O)[O-])cn1C/C(=N/OC(=O)c1cccc(Br)c1)c1ccc(Br)cc1`
Result block: 180

Query block: Request: `Cc1nc([N+](=O)[O-])cn1C/C(=N/OC(=O)c1cccnc1)c1ccc(Br)cc1`
Result block: 50

----------
Can you tell me CC50 at 72 h for the items I'm about to list?
- experiment_description: Cytotoxicity against human 293T cells after 72 hrs by MTT assay
- Type: cell-based
- condition_label: HEK-293T cells
Write the answer as a number in µg/mL, unit excluded.

Query block: Entry `CC1=CC(=O)C(C(C)C)=CC1=O` has what CC50 at 72 h?
Result block: 140

Query block: Here is the next compound: `Cc1nc([N+](=O)[O-])cn1C/C(=N/OC(=O)c1ccc([N+](=O)[O-])cc1)c1ccc(Br)cc1`
Result block: 160

Query block: Another compound to look at: `Cc1ccc(C(=O)O/N=C(/Cn2cc([N+](=O)[O-])nc2C)c2ccc(Br)cc2)cc1`
Result block: 270

Query block: Quick one: `Cc1nc([N+](=O)[O-])cn1C/C(=N/OC(=O)c1ccccc1Cl)c1ccc(Br)cc1`
Result block: 530

Query block: Then this compound: `COc1ccc(C(=O)O/N=C(/Cn2cc([N+](=O)[O-])nc2C)c2ccc(Br)cc2)cn1`
Result block: 980

Query block: Let us now turn to `Cc1ccc(C(=O)O/N=C(/Cn2cc([N+](=O)[O-])nc2C)c2ccc(Br)cc2)cn1`
Result block: 8300

Query block: Same read-out for `Cc1nc([N+](=O)[O-])cn1C/C(=N/OC(=O)c1cccnc1Cl)c1ccc(Br)cc1` ?
Result block: 12000

Query block: Now consider `Cc1nc([N+](=O)[O-])cn1C/C(=N/OC(=O)c1cccc(F)c1)c1ccc(Br)cc1` and answer again.
Result block: 530

Query block: Consider next the compound `COc1ccccc1C(=O)O/N=C(/Cn1cc([N+](=O)[O-])nc1C)c1ccc(Br)cc1` in the same way.
Result block: 500

----------
Kindly state IC50 for each of the entries shown.
- Tested on: HeLa
- experiment_description: Antiproliferative activity against human HeLa cells after 72 hrs by MTT assay
- Format: functional, cell-based
The response must be a number in µg/mL with no trailing unit.

Query block: Requested field: IC50. Item: `Cc1nc([N+](=O)[O-])cn1C/C(=N/OC(=O)c1cccc(Cl)c1)c1ccc(Br)cc1`
Result block: 4.09

Query block: Now this one: `Cc1ccc(C(=O)O/N=C(/Cn2cc([N+](=O)[O-])nc2C)c2ccc(Br)cc2)cc1`
Result block: 0.96

Query block: Also check `COc1ccc(C(=O)O/N=C(/Cn2cc([N+](=O)[O-])nc2C)c2ccc(Br)cc2)cn1`
Result block: 2.35

Query block: Now give it for `Cc1nc([N+](=O)[O-])cn1C/C(=N/OC(=O)c1ccccc1Cl)c1ccc(Br)cc1` too.
Result block: 8.53

Query block: Likewise for `Cc1nc([N+](=O)[O-])cn1C/C(=N/OC(=O)c1ccc(F)cc1)c1ccc(Br)cc1` ?
Result block: 7.24

Query block: # iterate: `Cc1cccc(C(=O)O/N=C(/Cn2cc([N+](=O)[O-])nc2C)c2ccc(Br)cc2)c1`
Result block: 12.3

Query block: And then `O=c1[nH]cc(F)c(=O)[nH]1` , what is it?
Result block: 3.82

Query block: Likewise for `Cc1nc([N+](=O)[O-])cn1C/C(=N/OC(=O)c1ccc(Cl)nc1)c1ccc(Br)cc1` ?
Result block: 0.96

Query block: Repeat with `Cc1nc([N+](=O)[O-])cn1C/C(=N/OC(=O)c1ccncc1)c1ccc(Br)cc1`
Result block: 1.63

----------
- Test system: MCF7
- experiment_description: Antiproliferative activity against human MCF7 cells after 72 hrs by MTT assay
- Type: functional, cell-based
- condition_label: MCF7, 72 h
property_measured: IC50 (mg/L)
# unit: mg/L | format: bare number

Query block: What value of measured IC50 is listed for `O=c1[nH]cc(F)c(=O)[nH]1` ?
Result block: 2.19

Query block: Quick one: `Cc1nc([N+](=O)[O-])cn1C/C(=N/OC(=O)c1ccncc1)c1ccc(Br)cc1`
Result block: 0.87

Query block: Repeat for the following compound: `Cc1nc([N+](=O)[O-])cn1C/C(=N/OC(=O)c1cccnc1Cl)c1ccc(Br)cc1`
Result block: 0.76

Query block: Field entry: `Cc1ccc(C(=O)O/N=C(/Cn2cc([N+](=O)[O-])nc2C)c2ccc(Br)cc2)cc1`
Result block: 1.54

Query block: Query `COc1ccccc1C(=O)O/N=C(/Cn1cc([N+](=O)[O-])nc1C)c1ccc(Br)cc1` next
Result block: 3.13

Query block: Now give it for `Cc1nc([N+](=O)[O-])cn1C/C(=N/OC(=O)c1cccc(F)c1)c1ccc(Br)cc1` too.
Result block: 1.87

Query block: Next up: `Cc1nc([N+](=O)[O-])cn1C/C(=N/OC(=O)c1ccc(Br)cc1)c1ccc(Br)cc1`
Result block: 2.56

Query block: Another: `COc1ccc(C(=O)O/N=C(/Cn2cc([N+](=O)[O-])nc2C)c2ccc(Br)cc2)cn1`
Result block: 0.89
